- Test system: Schizosaccharomyces pombe
- TEST_PROTOCOL: Toxicity in Schizosaccharomyces pombe Var. Paul Linder 3360 assessed as dead cells at 2.5 to 12.5 ug/ml after 17 hrs by trypan blue dye-based microscopic method
OBSERVATION_TYPE: Activity

Clc1ccc(-c2nc(-c3cc4ccccc4nc3N3CCOCC3)no2)cc1    Toxic
Brc1ccc(-c2nc(-c3cc4ccccc4nc3N3CCOCC3)no2)cc1    Non-Toxic
COc1ccc(-c2nc(-c3cc4ccccc4nc3N3CCOCC3)no2)cc1    Non-Toxic
Cc1ccc2nc(N3CCOCC3)c(-c3noc(-c4ccc(C(F)(F)F)cc4)n3)cc2c1    Non-Toxic
Cc1ccc2nc(N3CCOCC3)c(-c3noc(-c4cccc(C(F)(F)F)c4)n3)cc2c1    Non-Toxic

IN: Consider the compound shown here: Cc1ccc2nc(N3CCOCC3)c(-c3noc(-c4ccc(Cl)cc4)n3)cc2c1 What is its recorded Activity?
OUT: Toxic

IN: Consider the compound shown here: O=[N+]([O-])c1ccc(-c2nc(-c3cc4ccccc4nc3N3CCOCC3)no2)cc1 What is its recorded Activity?
OUT: Toxic

IN: Consider the compound shown here: Cc1ccc2nc(N3CCOCC3)c(-c3noc(-c4ccc([N+](=O)[O-])cc4)n3)cc2c1 What is its recorded Activity?
OUT: Toxic
